Tested on: SNU-C1 (Colorectal Carcinoma)
Test: combination Emax (second highest fraction inhibited in the dose matrix, 72 h); higher = more inhibition; extreme values may be limits of the assay
combination Emax values by entry
metric: combination Emax

[[record]]
compound = "Cc1cc2ncnn2cc1Nc1ncc2c(n1)n(C1CCOCC1)c(=O)n2C [AZD7648] + CN(C)CCCOc1ccc(-c2ccc3ncc4c(c3c2)n(C2CCOCC2)c(=O)n4C)cn1 [AZD0156] (first compound max 10 µM, 7x7, partner max 1 µM)"
assay_value = 0.316

[[record]]
compound = "NC1(C(=O)N[C@@H](CCO)c2ccc(Cl)cc2)CCN(c2ncnc3[nH]ccc23)CC1 [Capivasertib] + C[C@@H]1COCCN1C2=NC(=NC(=C2)C3(CC3)[S@](=N)(=O)C)C4=C5C=CNC5=NC=C4 [AZD6738] (first compound max 10 µM, 7x7, partner max 10 µM)"
assay_value = 0.533


====

Tested on: JHH-7 (Hepatocellular Carcinoma);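 note: after 72 h of two-drug dosing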
Assay: Bliss excess, mean over the matrix (fraction); higher = more synergy
The threshold is inclusive: Bliss excess of exactly -0.04 counts as satisfied; values below receive not satisfied.

[[record]]
compound = "O=C(c1cc(Cc2n[nH]c(=O)c3ccccc23)ccc1F)N1CCN(C(=O)C2CC2)CC1 [Olaparib] + Cc1c2c(nn1C)CSCc1cc(n(C)n1)CSc1cc(c3ccccc3c1)OCCCc1c(C(=O)O)n(C)c3c-2c(Cl)ccc13 [AZD5991] (first compound max 10 µM, 7x7, partner max 1 µM)"
class_assignment = "not satisfied"

[[record]]
compound = "N#Cc1cnc(Nc2cc(NC[C@H]3CNCCO3)c(C(F)(F)F)cn2)cn1 [SRA737] + Nc1ccn([C@@H]2O[C@H](CO)[C@@H](O)C2(F)F)c(=O)n1 [Gemcitabine] (first compound max 10 µM, 7x7, partner max 0.3 µM)"
class_assignment = "satisfied"

[[record]]
compound = "Cc1c2c(nn1C)CSCc1cc(n(C)n1)CSc1cc(c3ccccc3c1)OCCCc1c(C(=O)O)n(C)c3c-2c(Cl)ccc13 [AZD5991] + C=CCn1c(=O)c2cnc(Nc3ccc(N4CCN(C)CC4)cc3)nc2n1-c1cccc(C(C)(C)O)n1 [AZD1775] (first compound max 1 µM, partner max 1 µM)"
class_assignment = "satisfied"

[[record]]
compound = "CN(C)CCCOc1ccc(-c2ccc3ncc4c(c3c2)n(C2CCOCC2)c(=O)n4C)cn1 [AZD0156] + C[C@@H]1COCCN1C2=NC(=NC(=C2)C3(CC3)[S@](=N)(=O)C)C4=C5C=CNC5=NC=C4 [AZD6738] (first compound max 1 µM, 7x7, partner max 10 µM)"
class_assignment = "satisfied"

[[record]]
compound = "C[C@@H](Oc1cc(-c2cnn(C3CCNCC3)c2)cnc1N)c1c(Cl)ccc(F)c1Cl [Crizotinib] + Cn1cnc2c(F)c(Nc3ccc(Br)cc3Cl)c(C(=O)NOCCO)cc21 [Selumetinib] (first compound max 10 µM, 7x7, partner max 10 µM)"
class_assignment = "satisfied"

[[record]]
compound = "NC1(C(=O)N[C@@H](CCO)c2ccc(Cl)cc2)CCN(c2ncnc3[nH]ccc23)CC1 [Capivasertib] + CC(C)n1c(=O)n(C)c2cnc3cc(F)c(-c4ccc(OCCCN5CCCCC5)nc4)cc3c21 [AZD1390] (first compound max 10 µM, 7x7, partner max 0.3 µM)"
class_assignment = "not satisfied"


// provenance: the supplement of paper PMC11061612
